Where these numbers come from: patent US20230219886A1

- Test system: PANC-1 (pancreatic carcinoma)
- MEASUREMENT NOTES: MTT cell viability assay, Panc-1
- CONDITION SET: Homo sapiens, PANC-1, 48 h, read-out: cell viability
For each entry below, report its viability at 25 µM value.
Quick reminder: number only, in %, skip the unit.

viability at 25 µM measured on COc1ccc2c(c1)c(CC(=O)O)c(C)n2C(=O)c1ccc(Cl)cc1 [Inn, indomethacin, reference compound] = 85.9

viability at 25 µM measured on "C[Se]C(=O)c1ccccc1Nc1cccc(C)c1C" = 26.3

viability at 25 µM measured on Cc1cccc(Nc2ccccc2C(=O)O)c1C [Mf, mefenamic acid, reference compound] = 61.9

viability at 25 µM measured on "COc1ccc2cc([C@H](C)C(=O)[Se]C)ccc2c1" = 34.4

viability at 25 µM measured on CC(=O)Oc1ccccc1C(=O)O [ASA, aspirin, reference compound] = 63.8

viability at 25 µM measured on "C[Se]C(=O)c1cc(-c2ccc(F)cc2F)ccc1O" = 38.5

viability at 25 µM measured on "COc1ccc2c(c1)c(CC(=O)[Se]C)c(C)n2C(=O)c1ccc(Cl)cc1" = 66.6

viability at 25 µM measured on CC1=C(CC(=O)O)c2cc(F)ccc2/C1=C\c1ccc([S+](C)[O-])cc1 (stereo not shown) [Sulin, sulindac, reference compound] = 90.6

viability at 25 µM measured on "C[Se]C(=O)c1ccccc1OC(C)=O" = 36.9

viability at 25 µM measured on O=C(O)c1cc(-c2ccc(F)cc2F)ccc1O [Dfl, diflunisal, reference compound] = 75.5

###

- Test system: HT-29 (CRC)
- MEASUREMENT NOTES: MTT cell viability assay, HT-29
- CONDITION SET: Homo sapiens, HT-29, 48 h, read-out: cell viability
For each entry below, report its viability at 5 µM value.
Quick reminder: number only, in %, skip the unit.

# lookup: "COc1ccc2c(c1)c(CC(=O)[Se]C)c(C)n2C(=O)c1ccc(Cl)cc1" on HT-29 (CRC), viability at 5 µM = 26.3

# lookup: CC1=C(CC(=O)O)c2cc(F)ccc2/C1=C\c1ccc([S+](C)[O-])cc1 (stereo not shown) [Sulin, sulindac, reference compound] on HT-29 (CRC), viability at 5 µM = 99.1

# lookup: CC(=O)Oc1ccccc1C(=O)O [ASA, aspirin, reference compound] on HT-29 (CRC), viability at 5 µM = 73.1

# lookup: Cc1cccc(Nc2ccccc2C(=O)O)c1C [Mf, mefenamic acid, reference compound] on HT-29 (CRC), viability at 5 µM = 91.9

# lookup: "C[Se]C(=O)c1ccccc1OC(C)=O" on HT-29 (CRC), viability at 5 µM = 20.8

# lookup: "C[Se]C(=O)c1ccccc1Nc1cccc(C)c1C" on HT-29 (CRC), viability at 5 µM = 41.6

# lookup: "COc1ccc2cc([C@H](C)C(=O)[Se]C)ccc2c1" on HT-29 (CRC), viability at 5 µM = 52.2

# lookup: COc1ccc2c(c1)c(CC(=O)O)c(C)n2C(=O)c1ccc(Cl)cc1 [Inn, indomethacin, reference compound] on HT-29 (CRC), viability at 5 µM = 100

# lookup: "C[Se]C(=O)c1cc(-c2ccc(F)cc2F)ccc1O" on HT-29 (CRC), viability at 5 µM = 46.6

# lookup: O=C(O)c1cc(-c2ccc(F)cc2F)ccc1O [Dfl, diflunisal, reference compound] on HT-29 (CRC), viability at 5 µM = 93.2
